Tested on: Clostridium spiroforme
Assay: Antibacterial activity against Clostridium spiroforme by CLSI M11-A6 agar dilution method
Assay type: functional
Conditions: Thomasclavelia spiroformis
Parameter MIC90: see the listing below.

{"columns": ["Compound", "Unit spec", "MIC90"],
 "data": [
  ["CC(=O)NC[C@H]1CN(c2ccc(N3CCOCC3)c(F)c2)C(=O)O1 [LINEZOLID]", "µg/mL", 4],
  ["CCCCCCCCCCNCCN[C@@]1(C)C[C@H](O[C@H]2[C@H](Oc3c4cc5cc3Oc3ccc(cc3Cl)[C@@H](O)[C@@H](NC(=O)[C@@H](CC(C)C)NC)C(=O)N[C@@H](CC(N)=O)C(=O)N[C@H]5C(=O)N[C@H]3C(=O)N[C@H](C(=O)N[C@H](C(=O)O)c5cc(O)c(CNCP(=O)(O)O)c(O)c5-c5cc3ccc5O)[C@H](O)c3ccc(c(Cl)c3)O4)O[C@H](CO)[C@@H](O)[C@@H]2O)O[C@@H](C)[C@H]1O [TELAVANCIN]", "µg/mL", 0.25],
  ["CCC[C@@H]1C[C@@H](C(=O)N[C@@H]([C@H]2O[C@H](SC)[C@H](O)[C@@H](O)[C@H]2O)[C@H](C)Cl)N(C)C1 [CLINDAMYCIN]", "µg/mL", 4],
  ["Cc1ncc([N+](=O)[O-])n1CCO [METRONIDAZOLE]", "µg/mL", 1],
  ["CN[C@H](CC(C)C)C(=O)N[C@H]1C(=O)N[C@@H](CC(N)=O)C(=O)N[C@H]2C(=O)N[C@H]3C(=O)N[C@H](C(=O)N[C@H](C(=O)O)c4cc(O)cc(O)c4-c4cc3ccc4O)[C@H](O)c3ccc(c(Cl)c3)Oc3cc2cc(c3O[C@@H]2O[C@H](CO)[C@@H](O)[C@H](O)[C@H]2O[C@H]2C[C@](C)(N)[C@H](O)[C@H](C)O2)Oc2ccc(cc2Cl)[C@H]1O [VANCOMYCIN]", "µg/mL", 4],
  ["CCCCCCCCCC(=O)N[C@@H](Cc1c[nH]c2ccccc12)C(=O)N[C@H](CC(N)=O)C(=O)N[C@@H](CC(=O)O)C(=O)N[C@@H]1C(=O)NCC(=O)N[C@@H](CCCN)C(=O)N[C@@H](CC(=O)O)C(=O)N[C@H](C)C(=O)N[C@@H](CC(=O)O)C(=O)NCC(=O)N[C@H](CO)C(=O)N[C@@H]([C@H](C)CC(=O)O)C(=O)N[C@@H](CC(=O)c2ccccc2N)C(=O)O[C@@H]1C", "µg/mL", 8]
]}

Ref: ChEMBL document CHEMBL1671662
